- Target system: KRAS G13D (Homo sapiens (Human), UniProt P01116+P62937, G13D)
- Sequence (P01116 other isoform, or with tags, fused parts or gaps G13D): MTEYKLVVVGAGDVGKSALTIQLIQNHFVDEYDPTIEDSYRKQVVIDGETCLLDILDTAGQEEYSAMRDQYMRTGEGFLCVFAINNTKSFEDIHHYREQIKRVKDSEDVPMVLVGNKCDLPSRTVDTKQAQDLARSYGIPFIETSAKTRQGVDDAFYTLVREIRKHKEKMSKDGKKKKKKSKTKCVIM
- Sequence (P62937 whole entry): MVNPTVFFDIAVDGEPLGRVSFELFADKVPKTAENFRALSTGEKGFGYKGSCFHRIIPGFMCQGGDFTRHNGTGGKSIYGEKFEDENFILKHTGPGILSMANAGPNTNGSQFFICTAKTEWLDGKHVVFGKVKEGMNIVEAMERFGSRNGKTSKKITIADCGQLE
- Assay details: Ras-Raf disruption/FRET/MOA assay (BRAF RBD, Cyclophilin A)
- Format: biochemical
- Measurement setup: read-out: KRAS G13D FRET data IC50
Observed property: IC50

Examples with answers:
Which IC50 is reported for this molecule? CCn1c(-c2cccnc2[C@H](C)OC)c2c3cc(ccc31)-c1csc(n1)C[C@H](NC(=O)[C@H](C(C)C)N(C)C(=O)N1CC(Cc3cnn(C)c3)C1)C(=O)N1CCC[C@H](N1)C(=O)OCC(C)(C)C2
0.1 to 1 µM

// lookup IC50 for CCn1c(-c2cccnc2[C@H](C)OC)c2c3cc(ccc31)-c1cc(CF)cc(c1)C[C@H](NC(=O)[C@H](C(C)C)N(C)C(=O)[C@@H]1OCC[C@@H]1c1ccccc1)C(=O)N1CCC[C@H](N1)C(=O)OCC(C)(C)C2
0.1 to 1 µM

Returns the measured IC50 for the input molecule. Input: CCn1c(-c2cnccc2COC)c2c3cc(ccc31)-c1cc(O)cc(c1)C[C@H](NC(=O)[C@H](C(C)C)N(C)C(=O)O[C@@H]1CCOC1)C(=O)N1CCC[C@H](N1)C(=O)OCC(C)(C)C2
1 to 10 µM

Given CCn1c(-c2cccnc2[C@H](C)OC)c2c3cc(ccc31)-c1csc(n1)C[C@H](NC(=O)C1(F)CCC1)C(=O)N1CCC[C@H](N1)C(=O)OCC(C)(C)C2 , state its recorded IC50.
0.1 to 1 µM

Here is another molecule to look at.
Return reported IC50; argument: CCn1c(-c2cccnc2[C@H](C)OC)c2c3cc(ccc31)-c1cc(O)cc(c1)C[C@H](NC(=O)[C@H](C(C)C)N(C)C(=O)[C@H]1CCN(C(C)=O)C1)C(=O)N1CCC[C@H](N1)C(=O)NCC(C)(C)C2
1 to 10 µM
